The values you see were collected from PubChem BioAssay.

assayedTarget: Torsin-1A-interacting protein 1 (Homo sapiens)
testName: LAP1 binders from COS7 cell lysate, primary screen, small-molecule microarray, 635/667 nm fluorescence (AID 1116)
settings: COS7-hLAP1 lysate binding, 635 nm fluorescence, higher = more signal
// composite z-score lookup, one value per entry
// no unit string in output, number only

// known answers, use as guide
Specify reported composite z-score for the molecule shown: CCC(CC)C(O)C1C=CC2C(=O)N(C)C(=O)C2N1N1CCCCC1 (centres undefined) 0.103

Tell us which composite z-score value is on record for COc1cccc(C[C@H]2C[C@@H](CO[Si](C(C)C)(C(C)C)C(C)C)N3C(=O)[C@@]4(C(C)=O)O[C@@]23[C@@H]2C(=O)N(C)C(=O)[C@@H]24)c1 0.272

Supply recorded composite z-score for COC(=O)[C@@]1(Cc2ccc(F)cc2)[C@H]2c3cc(C(=O)N(C)C)n(CCO)c3C[C@H]2CN1C(=O)c1ccccc1 here. 1.47

Dear colleague, please send me the reported composite z-score for C=CCOC(=O)[C@@H]1[C@H]2C(=O)O[C@H](c3ccccc3)[C@H](c3ccccc3)N2[C@H](c2ccc(OCCOC(=O)[C@H]3C[C@H]4C(=O)NCC(=O)N4[C@H]3c3ccc(O)cc3)cc2)[C@@]12C(=O)Nc1ccc(I)cc12 when you can. 1.27

Give reported composite z-score value for COc1ccc([Si](C)(C)[C@H]2[C@H](CC(=O)N3Cc4ccccc4C[C@H]3CO)O[C@@]3(C(=O)N(Cc4cccc(N5C(=O)c6cccc7cccc5c67)c4)c4ccccc43)[C@@H]2C)cc1 0.302

Look up composite z-score of CC(C)CNC(=O)[C@@H]1c2ccccc2C(=O)N(Cc2ccccc2Cl)[C@H]1c1ccc(CO)cc1 and report it. 1.69

***
For the molecule CCN(CC)c1ccc(N2CC=CC34O[C@@H]5C=CCOC(=O)[C@@H]5[C@H]3C(=O)N(CCCO)[C@@H]4C2=O)cc1 (some centres undefined) , report composite z-score. 0.0016

For CN(C)C(=O)[C@@]1(CCS(=O)(=O)c2ccccc2)N=C(c2ccc(OCCCO)cc2)O[C@H]1c1ccccc1N=[N+]=[N-] , write its composite z-score. 1.56

Look up composite z-score of CCCCC(=C=CC[C@@H](O)c1ccc(OCCO)cc1)C[C@@H](O)c1ccccn1 and report it. 0.642

Identify measured composite z-score associated with COC(=O)c1c(CC[C@@H](CO)NC(=O)N[C@@H](Cc2ccccc2)Cn2cc(-c3cncn3C)nn2)oc(C(C)=O)c1C(=O)OC 1.62

Return composite z-score (reported value) for this molecule: NCCCC[C@@H]1NC(=O)[C@H]2C[C@@H](C(=O)NCc3ccc(F)cc3)[C@@H](c3cccc(OCCO)c3)N2C1=O 1.92

Name the recorded composite z-score of the molecule listed here: C[N+](C)(C)CCCCCCNC(=O)[C@@H]1C[C@@H]2C(=O)N[C@@H](Cc3ccccc3)C(=O)N2[C@@H]1c1ccc(O)cc1 1.41

# return recorded composite z-score for entry CCCCC(O)C1C=CC2C(=O)NC(=O)C2N1Nc1ccc(Cl)cc1Cl (centres undefined) -0.0411

// fetch composite z-score given entry CC(C)C[C@H]1NC(=O)[C@@H](C)NC(=O)[C@@]23C(=O)N[C@@H](Cc4ccccc4)C2[C@H](C)[C@@]2(C)O[C@H]2C3/C=C/C/C=C\CNC1=O (some centres undefined) -0.0872

---

testName: CREB reporter modulators under forskolin, primary screen, cell-based, PC12, CRE-LacZ reporter, forskolin-stimulated (AID 1146);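 note: PC12 cells with 6xCRE LacZ reporter stimulated by forskolin 10 µM; beta-galactosidase reporter signal reflecting CREB driven transcription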
settings: luminescence, 4.5 h, higher = more signal, called active from +8 up or from −8 down
Entries and their measured z-score follow.
# answer = number (no unit)

Answer with the recorded z-score for the compound listed here: CCC[C@@H]1C=C(C(=O)OCC)[C@H](c2ccccc2)N1S(=O)(=O)c1ccc(C)cc1 -0.578

New cases:
Please report z-score for the following compound: COc1cc2c(cc1O)C(c1ccc(CN3CCCC3)cc1)N(Cc1cccc(OC(F)(F)F)c1)CC2 (stereo not given) 0.248

Fill in z-score for record O=C1OCCC=C[C@H]2OC34C=CCN(CCN5CCOCC5)C(=O)[C@H]3N(CCCO)C(=O)[C@@H]4C12 (stereo not given in full) 1.74

// Input: CCCC=C(CCC)[C@@H](NS(=O)(=O)c1ccc(Cl)cc1)c1ccccc1 . Output its z-score only. 0.261

Find the measured z-score of N#Cc1ccc(C(O)C2C=CC3C(=O)N(c4ccccc4)C(=O)C3N2Nc2ccc([N+](=O)[O-])cc2)cc1 (stereo not given) and report it. -1.24

---

Measured z-score values are reported for all entries that follow.
assayedTarget: Luciferin 4-monooxygenase (Photinus pyralis)
testName: firefly luciferase enzyme inhibitors, primary screen, biochemical, luminescence, purified enzyme, 2006 set (AID 1141);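 note: cell-free assay with purified firefly luciferase at 100 ng per well in PBS; test concentration not given here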
settings: SteadyGlo luminescence, 30 min, higher = more signal, called active from +8 up or from −8 down
Give the value as a plain number.

Indicate its recorded z-score; the molecule in question is Cc1ccc(F)cc1S(=O)(=O)N[C@@H]1CCN(Cc2ccc3[nH]ccc3c2)C1 0.175

Report z-score, nothing else, for this molecule: Cc1ccc(S[C@]2(C(=O)NCC(F)(F)F)CC(=O)N(C3CCCCC3)[C@@H]2c2ccc(CO)cc2)cc1 -0.0377

Continuing:
Please supply the value of reported z-score for the item CN1C(=O)[C@]2(CCC(=O)OC(C)(C)C)N=C(c3ccc(OCCCO)cc3)O[C@@H]2c2ccccc21 -2.79

Indicate the recorded z-score value for this molecule: O=C1OCCC/C=C\[C@H]2OC34C=CCN(Cc5ccccc5)C(=O)[C@H]3N(CCCCCO)C(=O)[C@@H]4C12 (some centres undefined) -0.984

---

Parameter z-score: see the listing below.
testName: basal S. cerevisiae growth modulation, no modifier, primary screen, OD600, strain BY4716, 24 h, basal condition (AID 1173)
settings: OD600, 24 h, higher = more signal, called active from +8 up or from −8 down
// no unit, no text: just the number

Identify z-score associated with the compound CC1(C)OC[C@@]23C=C(Br)[C@@H](C[C@H]12)[C@@]1(CO1)C3=O -1.2

Assign z-score to the following record: C=CCC(OC(C)=O)[C@@H]1[C@@H](N(Cc2cc3ccccc3o2)C(=O)Cc2ccc(OC)cc2)c2cc(OCCCO)ccc2N1C(=O)Cc1ccc(OC)cc1 (some centres not stated) -1.01

Report z-score, nothing else, for this compound: C=CC[C@]1(C(=O)N(C)C)COC(c2ccc(OCCCO)cc2)=N1 -2.54

More entries:
Tell us which z-score value is on record for C=CCC(OC(C)=O)[C@@H]1[C@@H](N(Cc2ccc(-c3cccc(C(F)(F)F)c3)o2)C(=O)Cc2ccc(OC)cc2)c2cc(OCCCO)ccc2N1C(=O)c1ccc2ccccc2n1 (some centres not stated) -0.791

Determine its reported z-score: COC(=O)[C@H](Cc1ccc(O)cc1)N1CC2=CCCC=C[C@@H]2[C@H]1[C@H](O)Cc1ccccc1 -2.95

For the compound CN(C)CCCC[C@@H]1NC(=O)[C@@H]2C[C@H](C(=O)NCCCCCCNC(=O)CS)[C@H](c3cccc(OCCO)c3)N2C1=O , report z-score. -0.103

Quickly give me recorded z-score for CC(C)C[C@H]1NC(=O)[C@@]23C(=O)N[C@@H](Cc4ccccc4)C2[C@H](C)[C@@]2(C)O[C@H]2C3/C=C/C/C=C\CNC(=O)[C@@H]2CCCN2C1=O (some centres not stated) -1.43

Give reported z-score value for O=C(NCCO)C1=C[C@H](Oc2ccccc2I)[C@@H](O)[C@H](NCc2ccc(F)cc2)C1 -2.04

---

testName: COS7 lysate on small-molecule microarray, probe aHis, 635 nm (AID 1123);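 note: z-score combines 667nm fluorescence intensity with signal-to-noise per printed compound spot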
settings: COS7 cell lysate, fluorescence, higher = more signal
quantityKind: composite z-score
The answer should be a number; do not append a unit.

Look up and state reported composite z-score for C=CC[C@@]1(C(=O)N(C)C)N=C(c2ccc(OCCCO)cc2)O[C@@H]1c1ccccc1 2.59

Output composite z-score of CC(C)N1CC=CC23O[C@@H]4C=CCCOC(=O)C4[C@H]2C(=O)N(CCCCCO)[C@@H]3C1=O (some centres undefined) 0.19

State its composite z-score: O=C1OCCC/C=C\[C@H]2OC34C=CCN(Cc5ccccc5)C(=O)[C@H]3N(CCCCCO)C(=O)[C@@H]4C12 (some centres undefined) 3.41

Report measured composite z-score; entry is [N-]=[N+]=NCc1ccccc1C[C@@]1(C(=O)O)N=C(c2ccc(OCCCO)cc2)O[C@@H]1c1ccccc1CN=[N+]=[N-] 0.0091

---

testName: basal S. cerevisiae growth modulation, no modifier, primary screen, OD600, strain BY4716, 24 h, basal condition (AID 1173)
settings: OD600, 24 h, higher = more signal, called active from +8 up or from −8 down
Label label 1 for high-side z-score (at or above -0.03) and label 0 for low-side z-score (below it).

Field: example entries. Status: answers known.
Would you say CO[C@H]1O[C@H](CO)[C@@H](OC(=O)Nc2ccc(C(F)(F)F)cc2)[C@H](OC(=O)Nc2ccccc2-c2ccccc2)[C@H]1OC(=O)Nc1ccccc1-c1ccccc1 shows z-score at minimum -0.03? label 1

Item CCOC(=O)C1=CC[C@@H](c2ccc(F)cc2)N(S(=O)(=O)c2ccc(C)cc2)[C@H]1c1ccc([N+](=O)[O-])cc1 with z-score of -0.03 or above? label 1

Reported z-score at or above -0.03? CCCCC(=C=CC[C@@H](O)c1ccc(OCCO)cc1)C[C@@H](O)c1ccccn1 label 0

# bool: z-score of C#CCN(C/C=C/c1ccccc1)[C@H](CO[Si](C)(C)C(C)(C)C)c1ccccc1 >= -0.03 label 1

Please check the record C[C@H]1NC(=O)C([C@@H](C)OCc2ccccc2)NC(=O)[C@@]23C(=O)N[C@@H](Cc4ccccc4)C2[C@H](C)[C@@]2(C)O[C@H]2C3/C=C/C/C=C\CNC1=O (stereo not given in full) and state if its z-score is at or above -0.03. label 1

In plain terms: is recorded z-score at least -0.03 for COc1ccc(CCNC(=O)[C@@H]2c3ccccc3C(=O)N(CC34CC5CC(CC(C5)C3)C4)[C@H]2c2ccc(CO)cc2)cc1 ? label 0

Is it the case that COCC1=C([C@H](O)CCc2ccccc2)[C@H](CO)n2c(=O)n(-c3ccccc3)c(=O)n2C1 has z-score reaching or exceeding -0.03? label 0

Evaluate CCCCC(=C=CC[C@H](O)c1ccc(OCCO)cc1)C[C@H](O)c1ccccn1 : z-score at minimum -0.03? label 0

More entries:
Has COc1ccc([Si](C)(C)[C@H]2[C@H](CC(=O)N3Cc4ccccc4C[C@H]3CO)O[C@@]3(C(=O)N(Cc4cccc(N5C(=O)c6cccc7cccc5c67)c4)c4ccccc43)[C@@H]2C)cc1 a recorded z-score greater than or equal to -0.03? label 0

Entry COC(=O)C1(CC(C)C)C=C2C(=C(C(C)C)C(=O)C2C)CN1 (stereo not given) : is its z-score no less than -0.03? label 1

Textbook exercise: given the entry [N-]=[N+]=Nc1ccccc1[C@@H]1OC(c2ccc(OCCCO)cc2)=N[C@]1(Cc1ccccc1)C(N)=O , state whether its z-score is greater than or equal to -0.03. label 0

Check if z-score >= -0.03 (inclusive). Item: CCCCN1CC=CC23O[C@@H]4C=CCOC(=O)[C@@H]4[C@H]2C(=O)N(C(CO)C(C)C)[C@@H]3C1=O (stereo not given in full) label 1

Quick check, z-score >= -0.03? CCCCCCCCCCC(O)C1C=CC2C(=O)N(C)C(=O)C2N1N1CCCCC1 (stereo not given) label 1

# check: z-score of COCCOC(=O)N1C(=O)[C@@]2(c3cc(C#CCCO)ccc31)[C@H](c1ccccc1OCCO)N1[C@H](c3ccccc3)[C@H](c3ccccc3)OC(=O)[C@H]1[C@@H]2C(=O)N1CCc2cc(OC)c(OC)cc2C1 is greater than or equal to -0.03 label 1
